B1: FLOT1 (parent)
chain: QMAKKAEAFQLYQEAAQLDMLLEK

- Variants of: B1
- experimental details: protein stability index of a GFP-peptide fusion (GPS, HEK-293T) (PSI 1-6); higher = more stable;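 note: lentivirally expressed fusions sorted by FACS into six bins by GFP to DsRed ratio, PSI derived from sequencing read proportions per bin multiplied by bin number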
- settings: c terminus: a fixed tail appended

variant identifier	protein stability index
A6P	2.37
Q13D	4.08
A16Q	3.31
A8C	1.7
L11P	4.05
Q1S	3.78
Y12P	5.08
Q10K	1.32
Q13E	2.92
F9M	1.72
A6Q	1.91
K4Y	2.25
A8F	3.96
M2E	2.07
A3V	1.29
A15I	2.1
Q1L	2.5
A6E	1.92
E23G	3.26
Y12R	4.75
K4M	1.55
Q13I	2.49
K24H	2.67
Y12L	2.03
L18P	3.9
K24V	1.73
E14G	2.58
L18C	3.66
D19E	1.87
M2C	1.61
K5N	1.42
Q1E	2.19
F9N	1.82
E23D	3.79
E14R	2.21
Q13S	1.8
Q17P	3.95
L21N	3.38
A6T	1.38
L22H	2.48
M20R	2.98
F9S	2.01
Q13F	1.52
L21I	2
K4T	1.15
M2N	1.92
L22Q	2.08
A16K	3.59
L22V	2.33
K4C	1.86
E14P	3.12
E7M	1.64
A16V	1.1
K24Y	2.35
E14N	2.5
F9C	1.41
M2I	1.36
A3W	1.21
A6K	2.43
Q10N	2.03
Q1D	1.9
F9T	2.11
K24L	2.08
D19G	1.48
K5G	1.92
E23F	1.72
M20D	4.03
L11F	2.15
A16L	2.63
E7T	1.36
E14L	1.97
M20C	1.97
Y12C	3.06
E7A	2.46
Q13H	3.6
K5T	2.01
M2H	1.57
D19R	1.53
M20A	2.75
E7S	4
M20I	3.46
M2V	1.22
L21V	2.35
E14D	2.13
D19S	1.29
A8H	1.42
L18V	1.85
M2G	2.78
D19K	1.65
Q17K	1.65
F9E	3.65
